In this section, each of the molecules is paired with its reported Ki.
- target-or-test-system: glucocorticoid receptors (Homo sapiens, UniProt P04150)
- Sequence (P04150 whole entry): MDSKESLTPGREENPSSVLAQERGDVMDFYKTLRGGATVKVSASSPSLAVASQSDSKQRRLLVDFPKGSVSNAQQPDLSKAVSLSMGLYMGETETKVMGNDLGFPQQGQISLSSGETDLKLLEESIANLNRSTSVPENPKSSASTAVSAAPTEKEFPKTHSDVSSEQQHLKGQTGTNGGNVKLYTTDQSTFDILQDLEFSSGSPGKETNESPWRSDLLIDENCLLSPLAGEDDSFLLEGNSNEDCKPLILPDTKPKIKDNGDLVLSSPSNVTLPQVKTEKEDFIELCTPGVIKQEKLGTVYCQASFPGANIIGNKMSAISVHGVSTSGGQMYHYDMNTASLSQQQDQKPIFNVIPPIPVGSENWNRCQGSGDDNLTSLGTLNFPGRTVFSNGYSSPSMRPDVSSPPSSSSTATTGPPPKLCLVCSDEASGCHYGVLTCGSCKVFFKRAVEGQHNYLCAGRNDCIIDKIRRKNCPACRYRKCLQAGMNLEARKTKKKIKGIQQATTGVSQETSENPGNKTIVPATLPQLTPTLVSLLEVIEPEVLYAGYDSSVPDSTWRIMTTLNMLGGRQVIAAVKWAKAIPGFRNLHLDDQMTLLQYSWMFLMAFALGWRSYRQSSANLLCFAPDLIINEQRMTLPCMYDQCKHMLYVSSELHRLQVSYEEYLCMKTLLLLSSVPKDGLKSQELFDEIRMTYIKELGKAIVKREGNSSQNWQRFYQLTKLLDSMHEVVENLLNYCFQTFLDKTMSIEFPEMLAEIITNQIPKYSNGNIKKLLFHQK
- assay-remarks: Glucocorticoid receptor binding displacement assay with 3H-dexamethasone
- Parameters: This GR was a full-length steroid hormone receptor; host or cells: recombinant baculovirus-infected insect cells
- Protocol: The source of the receptor was recombinant baculovirus-infected insect cells. This GR was a full-length steroid hormone receptor likely to be associated with heat-shock and other endogenous proteins. […] After 2.5 hrs incubation, unbound counts were removed with dextran coated charcoal (DCC) as follows: 25 μl of DCC solution (10% DCC in assay buffer) was added to all wells and mixed (total volume 225 μl). […] The plate was vigorously shaken for approx. 10 minutes and counted on Topcount. […]

Some solved cases for reference:
[
  {
    "molecule": "O=S(=O)(N1CCOCC1)N1CCC2=Cc3c(cnn3-c3ccc(F)cc3)CC2(Cc2ccc(F)cc2)C1 (centres unmarked)",
    "target-or-test-system": "glucocorticoid receptors (Homo sapiens, UniProt P04150)",
    "endpoint-label": "Ki",
    "measured": "10 to 100 nM"
  },
  {
    "molecule": "O=S(=O)(c1ccccc1)N1CCC2=Cc3c(cnn3-c3ccc(F)cc3)C[C@]2(CN2CCCCC2)C1",
    "target-or-test-system": "glucocorticoid receptors (Homo sapiens, UniProt P04150)",
    "endpoint-label": "Ki",
    "measured": "< 10 nM"
  },
  {
    "molecule": "CC(C)(C)c1ccc(S(=O)(=O)N2CCC3=Cc4c(cnn4-c4ccc(F)cc4)C[C@]3(CN3CCC3)C2)cc1",
    "target-or-test-system": "glucocorticoid receptors (Homo sapiens, UniProt P04150)",
    "endpoint-label": "Ki",
    "measured": "< 10 nM"
  }
]

I have this molecule here, Fc1ccc(CC23Cc4cnn(-c5ccc(F)cc5)c4C=C2CCN(Cc2cccnc2)C3)cc1 (centres unmarked) , and I need its recorded Ki.
10 to 100 nM

I have this molecule here, CC(C)(C)c1ccc(S(=O)(=O)N2CCC3=Cc4c(cnn4-c4ccc(F)cc4)CC3(Cc3ccc(F)cc3)C2)cc1 (centres unmarked) , and I need its recorded Ki.
< 10 nM
